System tested: Cruzipain (Trypanosoma cruzi)
Method notes: qHTS Assay for Promiscuous and Specific Inhibitors of Cruzain (without detergent); note: nearly all actives have a fitted effect of over 40% in size; note: potency is the fitted concentration of half-maximal effect
Measurement context: purified cruzain, Z-FR-AMC fluorescence, no detergent
The campaign covered roughly 200,000 compounds. About 4,500 (2.2%) were called active. About 12% were inconclusive and are not listed. The sample holds actives, similar compounds and a random draw of the others, so the mix is not that of the screen.
Each entry below lists one item and its recorded Potency value.
Measurement label: Potency

> print(dat)
                                    molecule  measurement.label  reported.measurement
 1  O=C(COC(=O)c1c2c(nc3ccccc13)/C(=C\c1cccs1)CCC2)Nc1ccccc1Cl            Potency      31.6 µM (active)
 2  O=C1OCCN1C(=O)[C@H]1[C@H](c2ccc(F)cc2)C(c2ccccc2)=NN1c1ccc(Br)cc1            Potency      22.4 µM (active)
 3  COc1ccc(-c2nnc(SC(=O)N3c4ccccc4Sc4ccccc43)o2)cc1            Potency      31.6 µM (active)
 4  N#C/C(=C(/O)Cc1cccc2ccccc12)c1nc2ccccc2s1            Potency      12.6 µM (active)
 5  Cc1ccc(NS(=O)(=O)c2ccc3c(c2)CC(=O)N3)cc1Cl            Potency      15.8 µM (active)
 6  COC(=O)c1c(NC(=O)CN2CCN(S(=O)(=O)c3ccccc3[N+](=O)[O-])CC2)sc2c1CCC(C)C2 (stereo unspecified)            Potency        10 µM (active)
 7      C=CCNc1nnc(SCC(=O)N2CCCCC2)c2ccccc12            Potency        20 µM (active)
 8  NS(=O)(=O)c1ccc(NC(=O)COC(=O)c2c3c(nc4ccccc24)/C(=C\c2ccc4c(c2)OCO4)CCC3)cc1            Potency        20 µM (active)
 9  Cc1ccc(C(=O)COC(=O)c2cccc(N3C(=O)c4c(C)nc5ccccc5c4C3=O)c2)cc1C            Potency      7.94 µM (active)
10        O=C(COc1ccccc1)NCCc1nc2ccccc2[nH]1            Potency         1 µM (active)
11  Clc1cccc(N=C2NN=C(c3ccc4c(c3)OCCO4)CS2)c1            Potency        10 µM (active)
12  Cc1ccccc1OCC(=O)NCC(=O)OCC(=O)c1ccc2ccccc2c1            Potency        10 µM (active)
13  Cc1c(Br)c([N+](=O)[O-])nn1CC(=O)Nc1sc2c(c1C(=O)OC(C)C)CCC(C)C2 (stereo unspecified)            Potency      15.8 µM (active)
14  COc1ccc(OC)c(C2C3=C(N=c4s/c(=C\c5cccc(O)c5)c(=O)n42)c2ccccc2CC3)c1 (stereo unspecified)            Potency      3.16 µM (active)
15     CNC(=S)N/N=C/c1ccc(OCc2ccccc2)c(Br)c1            Potency      25.1 µM (active)
16  O=C1N(Cc2ccc3c(c2)OCO3)c2ccccc2C1(O)c1c[nH]c2ccccc12 (stereo unspecified)            Potency      15.8 µM (active)
17        CC(C)=CC(=O)Nc1nnc(-c2ccc(F)cc2)s1            Potency      12.6 µM (active)
18  CCOC(=O)C1=C(C)Nc2sc(C(=O)c3ccc(Br)cc3)c(N)c2C1c1ccc(C(=O)OC)cc1 (stereo unspecified)            Potency        10 µM (active)
19       c1ccc(Nc2nc(N3CCOCC3)c3ccccc3n2)cc1            Potency      12.6 µM (active)
20  Brc1ccc(/C=N/N2CCN(C3c4ccccc4-c4ccccc43)CC2)s1            Potency      12.6 µM (active)
21  CN1c2ccc(Cl)cc2-c2nc(SCC(=O)Nc3cc(F)ccc3F)ncc2S1(=O)=O            Potency      12.6 µM (active)

----------
System tested: Cruzipain (Trypanosoma cruzi)
Method notes: qHTS Assay for Promiscuous and Specific Inhibitors of Cruzain (without detergent); note: nearly all actives have a fitted effect of over 40% in size;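 for max response, negative = inhibition: plate controls were enzyme without inhibitor for no effect and buffer without enzyme for full effect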
Measurement context: purified cruzain, Z-FR-AMC fluorescence, no detergent
Out of some 200,000 compounds screened, about 4,500 (2.2%) were called active. Not shown: some 12% with an inconclusive outcome. Only a selection was taken, and actives are over-represented in it overall.
Measurement label: max response, negative = inhibition (%)

> print(dat)
                                    molecule                  system.tested  measurement.units  reported.measurement
 1  CCOC(=O)c1ccc2c(c1)N(Cc1cccc(OC)c1)C(=O)c1ccccc1S2(=O)=O  Cruzipain (Trypanosoma cruzi)                  %                 -13.7
 2  COc1ccc(N2C(=O)NC(NS(=O)(=O)c3ccc(Cl)cc3)(C(F)(F)F)C2=O)cc1 (stereo unspecified)  Cruzipain (Trypanosoma cruzi)                  %                 -4.66
 3  COC(=O)c1cccc(Cn2nnc3sc4c(c3c2=O)CCC(C(C)(C)C)C4)c1 (stereo unspecified)  Cruzipain (Trypanosoma cruzi)                  %                  2.87
 4  CSc1cccc(NC(=O)CN2C(=O)CCc3cc(S(=O)(=O)N4CCCCC4)ccc32)c1  Cruzipain (Trypanosoma cruzi)                  %                 -6.74
 5       Cc1cccc(NC(=O)N2CCN(C)c3ncccc32)c1C  Cruzipain (Trypanosoma cruzi)                  %                  2.65
 6            Clc1ccccc1CSc1nncn2c1cc1occc12  Cruzipain (Trypanosoma cruzi)                  %                 -9.48
 7                  COC(=O)Cc1nc2ccccc2[nH]1  Cruzipain (Trypanosoma cruzi)                  %                  -1.4
 8  CC(=O)c1c(O)c(C)c(O)c(Cc2c(O)c3c(c(C(=O)/C=C\c4ccccc4)c2O)OC(C)(C)C=C3)c1O  Cruzipain (Trypanosoma cruzi)                  %                  23.6
 9   COc1ccc(C(=O)Cc2cnn(-c3ccccc3)c2)c(O)c1  Cruzipain (Trypanosoma cruzi)                  %                  4.15
10           COc1ccc(Nc2nc(-c3ccccc3)cs2)cc1  Cruzipain (Trypanosoma cruzi)                  %                 -15.9
11  COc1ccc(Cn2c(C(=O)O)c(CNCCc3cccs3)c3ccc(OC)cc32)cc1  Cruzipain (Trypanosoma cruzi)                  %                 -3.19
12  COc1ccc(CCNC(=O)c2cnc3sc(N4CCCCCC4)nn3c2=O)cc1OC  Cruzipain (Trypanosoma cruzi)                  %                   2.6
13  COc1ccc(C(=O)c2c(C)oc3cc([N+](=O)[O-])c(O)c([N+](=O)[O-])c23)cc1  Cruzipain (Trypanosoma cruzi)                  %                  -3.8
14                 Nc1nc(SCc2ccccc2Cl)n[nH]1  Cruzipain (Trypanosoma cruzi)                  %                  3.93
15  CCOc1ccc(C(=O)c2cn(Cc3ccc(F)cc3)c3ccc(F)cc3c2=O)cc1  Cruzipain (Trypanosoma cruzi)                  %                  3.78
16      COc1cccc(C(=O)c2cc3ccc(O)cc3oc2=O)c1  Cruzipain (Trypanosoma cruzi)                  %                 -3.19
17  O=C(CSc1nccn1C1CCCC1)Nc1cc(C(F)(F)F)ccc1Cl  Cruzipain (Trypanosoma cruzi)                  %                  9.92
18  COc1ccc(CCNC(=O)CCCCn2c(=O)c3ccccc3n(Cc3ccccc3)c2=O)cc1OC  Cruzipain (Trypanosoma cruzi)                  %                -0.815
19  Cc1nn(CC(=O)Nc2nc3ccccc3s2)c(C)c1[N+](=O)[O-]  Cruzipain (Trypanosoma cruzi)                  %                 -6.47
20  CCOC(=O)N1CCc2c(sc3c2c(=O)n(Cc2ccccc2)c(=O)n3CC(=O)Nc2cccc(C)c2)C1  Cruzipain (Trypanosoma cruzi)                  %                 -13.3
21  CCOC(=O)c1cccc(NS(=O)(=O)c2cc(-c3cnc(C)o3)ccc2OC)c1  Cruzipain (Trypanosoma cruzi)                  %                  1.23
